study.target: Nucleic Acid
method.notes: Binding affinity to HIV1 TAR RNA bulgeless tetraloop mutant at pH 6.8 by ethidium bromide displacement assay
Assay type: nucleic-acid assay, Human immunodeficiency virus 1
pIC50: −log10 of the molar value.
readout.type: pIC50

- NC[C@@H]1O[C@H](O[C@H]2[C@@H](O)[C@H](O[C@@H]3[C@@H](O)[C@H](N)C[C@H](N)[C@H]3O[C@H]3O[C@H](CN)[C@@H](O)[C@H](O)[C@H]3N)O[C@@H]2Cn2cc(CCCCc3cn(C[C@H]4O[C@@H](O[C@@H]5[C@@H](O)[C@H](N)C[C@H](N)[C@H]5O[C@H]5O[C@H](CN)[C@@H](O)[C@H](O)[C@H]5N)[C@H](O)[C@@H]4O[C@H]4O[C@@H](CN)[C@@H](O)[C@H](O)[C@H]4N)nn3)nn2)[C@H](N)[C@@H](O)[C@@H]1O: 6.67
- C/C(CCc1cn(C[C@H]2O[C@@H](O[C@@H]3[C@@H](O)[C@H](N)C[C@H](N)[C@H]3O[C@H]3O[C@H](CN)[C@@H](O)[C@H](O)[C@H]3N)[C@H](O)[C@@H]2O[C@H]2O[C@@H](CN)[C@@H](O)[C@H](O)[C@H]2N)nn1)=C(/C)CCc1cn(C[C@H]2O[C@@H](O[C@@H]3[C@@H](O)[C@H](N)C[C@H](N)[C@H]3O[C@H]3O[C@H](CN)[C@@H](O)[C@H](O)[C@H]3N)[C@H](O)[C@@H]2O[C@H]2O[C@@H](CN)[C@@H](O)[C@H](O)[C@H]2N)nn1: 6.79
- NC[C@@H]1O[C@H](O[C@H]2[C@@H](O)[C@H](O[C@@H]3[C@@H](O)[C@H](N)C[C@H](N)[C@H]3O[C@H]3O[C@H](CN)[C@@H](O)[C@H](O)[C@H]3N)O[C@@H]2Cn2cc(CCCCCCc3cn(C[C@H]4O[C@@H](O[C@@H]5[C@@H](O)[C@H](N)C[C@H](N)[C@H]5O[C@H]5O[C@H](CN)[C@@H](O)[C@H](O)[C@H]5N)[C@H](O)[C@@H]4O[C@H]4O[C@@H](CN)[C@@H](O)[C@H](O)[C@H]4N)nn3)nn2)[C@H](N)[C@@H](O)[C@@H]1O: 6.82
- NC[C@@H]1O[C@H](O[C@H]2[C@@H](O)[C@H](O[C@@H]3[C@@H](O)[C@H](N)C[C@H](N)[C@H]3O[C@H]3O[C@H](CN)[C@@H](O)[C@H](O)[C@H]3N)O[C@@H]2Cn2cc(COCc3cn(C[C@H]4O[C@@H](O[C@@H]5[C@@H](O)[C@H](N)C[C@H](N)[C@H]5O[C@H]5O[C@H](CN)[C@@H](O)[C@H](O)[C@H]5N)[C@H](O)[C@@H]4O[C@H]4O[C@@H](CN)[C@@H](O)[C@H](O)[C@H]4N)nn3)nn2)[C@H](N)[C@@H](O)[C@@H]1O: 6.91

----------
Test system: Nucleic Acid
method.notes: Binding affinity to HIV1 TAR RNA tetraloop mutant assessed as association constant at pH 6.8 by ethidium bromide displacement assay based Scatchard analysis method
Format: nucleic-acid assay
study.conditions: Human immunodeficiency virus 1
readout.type: K (×10⁷ /M)

* NC[C@@H]1O[C@H](O[C@H]2[C@@H](O)[C@H](O[C@@H]3[C@@H](O)[C@H](N)C[C@H](N)[C@H]3O[C@H]3O[C@H](CN)[C@@H](O)[C@H](O)[C@H]3N)O[C@@H]2Cn2cc(CCCc3cn(C[C@H]4O[C@@H](O[C@@H]5[C@@H](O)[C@H](N)C[C@H](N)[C@H]5O[C@H]5O[C@H](CN)[C@@H](O)[C@H](O)[C@H]5N)[C@H](O)[C@@H]4O[C@H]4O[C@@H](CN)[C@@H](O)[C@H](O)[C@H]4N)nn3)nn2)[C@H](N)[C@@H](O)[C@@H]1O | 1.4
* NC[C@@H]1O[C@H](O[C@H]2[C@@H](O)[C@H](O[C@@H]3[C@@H](O)[C@H](N)C[C@H](N)[C@H]3O[C@H]3O[C@H](CN)[C@@H](O)[C@H](O)[C@H]3N)O[C@@H]2Cn2cc(-c3cccc(-c4cn(C[C@H]5O[C@@H](O[C@@H]6[C@@H](O)[C@H](N)C[C@H](N)[C@H]6O[C@H]6O[C@H](CN)[C@@H](O)[C@H](O)[C@H]6N)[C@H](O)[C@@H]5O[C@H]5O[C@@H](CN)[C@@H](O)[C@H](O)[C@H]5N)nn4)c3)nn2)[C@H](N)[C@@H](O)[C@@H]1O | 1.3
